System: T-47D breast
test: NCI-60 one-dose screen, 48 h (100 = growth as untreated, 0 = no growth, -100 = all killed)
condition_details: 10 µM
Compounds without any hit were thinned out: in the full panel of roughly 83,000, 20% have a hit.
quantity_name: growth (%)
Answers are plain numbers, in %.

Qu. What value of growth has been recorded for this entry: CCCCCCCCCCCCCCCCCCOCC(COP(=O)([O-])OCC[N+](C)(C)C)OC (centres undefined)
Ans. 88

Please give growth for each item listed below.
1. CCN1/C(=C/C=C/C=C/c2sc3ccccc3[n+]2CC)Sc2ccccc21
2. O=C1C=C(O)c2ccccc2C1=O.[Ag]
3. O=C(O)COc1ccc(OCC(=O)O)cc1

Ans.
-32.2
79.5
5.61

====

Tested on: HCT-15 colon
test: NCI-60 one-dose screen, 48 h
condition_details: 10 µM
Compounds without any hit were thinned out: in the full panel of roughly 83,000, 20% have a hit. Calls of active or inactive are those of the source. The calls were made as follows: active = growth percent below 10; inactive = the rest.
In this exercise, the only acceptable responses are active, inactive

Example results:
Qu. Name the outcome recorded for O=[N+]([O-])C1=C(c2ccccc2)SC=C(c2ccccc2)S1 in the assay.
Ans. inactive

Qu. Dear all, I need the recorded test outcome for N=S(c1ccccc1[N+](=O)[O-])c1ccccc1[N+](=O)[O-] , thank you.
Ans. active

Qu. Per the assay record, what outcome was assigned to O=C1C=C(O)c2ccccc2C1=O.[Ag] ?
Ans. inactive

Continuing:
Qu. Given NC(=O)SCC(=O)NNc1ccccc1 , state the outcome it received in this test.
Ans. inactive

====

Test system: SF-268 CNS
test: NCI-60 one-dose screen, 48 h
condition_details: 10 µM
Compounds without any hit were thinned out: in the full panel of roughly 83,000, 20% have a hit. Activity calls are given as the source filed them. Rule for the calls: active = growth percent below 10; inactive = the rest.
Would you mind answering with one of these outcomes? active, inactive

// below: answered compounds
Qu. What did this assay record as the result for Clc1cc(Cl)c(Cl)nn1 ?
Ans. inactive

Qu. # outcome recorded in this test, key = O=C1C=C(O)c2ccccc2C1=O.[Ag]
Ans. inactive

Qu. What classification did Clc1ccc(/C=C/c2ccccn2)c(Cl)c1 end up with in this test?
Ans. inactive

Qu. What call does the record list for CC[N+](CC)=c1ccc2nc3c(cc(N)c4ccccc43)oc-2c1 ?
Ans. active

Qu. Record request — test call for NNc1c2ccccc2nc2ccccc12
Ans. inactive

Further cases:
Qu. Hi, sorry to bother you, what did the test record for CCCCCCCCCCCC[N+](C)(C)Cc1ccccc1 ?
Ans. active

Qu. Answer briefly: the call reported for CCCCCCCCCCSC(=N)N in this assay.
Ans. inactive

====

Test system: KM12 colon
test: NCI-60 one-dose screen, 48 h (100 = growth as untreated, 0 = no growth, -100 = all killed)
condition_details: 10 µM
Compounds without any hit were thinned out: in the full panel of roughly 83,000, 20% have a hit.
quantity_name: growth (%)
Numbers only, in %.

Study these solved cases before continuing.
Qu. # growth lookup, item CN1CCN(CCCN2c3ccccc3Sc3ccc(C(F)(F)F)cc32)CC1
Ans. 40.2

Qu. I would be grateful if you could share the reported growth for COC1OCC(O)C(O)C1O (configuration not stated) .
Ans. 103

Qu. Fill in: growth of CCCCCCCCCCCC[N+](C)(C)Cc1ccccc1 is ___
Ans. -63.7

Qu. # growth lookup, item CC(C)(C)CC(C)(C)c1ccc(OCCO)cc1
Ans. 99.4

Please supply growth for each of the following items, keeping them in order.
1. CCCCCC(C)c1ccc(O)c(C)c1 (configuration not stated)
2. NC1=C(Cl)C(=O)c2ccccc2C1=O
3. CC1=CC(C)=Nc2ccc(Cl)cc2N1
4. CCCCCCCCCCCCCCCCCCOCC(COP(=O)([O-])OCC[N+](C)(C)C)OC (configuration not stated)
5. CCC(C)(C)c1cc(O)c(C(C)(C)CC)cc1O

Ans.
1. 106
2. 65.3
3. 100
4. 29.7
5. 55.3

Give me growth for each of these compounds, listed below.
1. OC(CN1CCCC2CCCCC21)c1cc2ccccc2c2ccccc12 (configuration not stated)
2. N=S(c1ccccc1[N+](=O)[O-])c1ccccc1[N+](=O)[O-]
3. O=C(Nc1ccc(C(=O)O)c(O)c1)c1ccccc1

Ans.
15.9
88.8
120
